Measured target: T1, Taq DNA polymerase (Thermus aquaticus, UniProt P19821 1-832)
T1 construct: also called Taq enzyme; Taq DNA enzyme
T1 sequence (P19821 whole entry): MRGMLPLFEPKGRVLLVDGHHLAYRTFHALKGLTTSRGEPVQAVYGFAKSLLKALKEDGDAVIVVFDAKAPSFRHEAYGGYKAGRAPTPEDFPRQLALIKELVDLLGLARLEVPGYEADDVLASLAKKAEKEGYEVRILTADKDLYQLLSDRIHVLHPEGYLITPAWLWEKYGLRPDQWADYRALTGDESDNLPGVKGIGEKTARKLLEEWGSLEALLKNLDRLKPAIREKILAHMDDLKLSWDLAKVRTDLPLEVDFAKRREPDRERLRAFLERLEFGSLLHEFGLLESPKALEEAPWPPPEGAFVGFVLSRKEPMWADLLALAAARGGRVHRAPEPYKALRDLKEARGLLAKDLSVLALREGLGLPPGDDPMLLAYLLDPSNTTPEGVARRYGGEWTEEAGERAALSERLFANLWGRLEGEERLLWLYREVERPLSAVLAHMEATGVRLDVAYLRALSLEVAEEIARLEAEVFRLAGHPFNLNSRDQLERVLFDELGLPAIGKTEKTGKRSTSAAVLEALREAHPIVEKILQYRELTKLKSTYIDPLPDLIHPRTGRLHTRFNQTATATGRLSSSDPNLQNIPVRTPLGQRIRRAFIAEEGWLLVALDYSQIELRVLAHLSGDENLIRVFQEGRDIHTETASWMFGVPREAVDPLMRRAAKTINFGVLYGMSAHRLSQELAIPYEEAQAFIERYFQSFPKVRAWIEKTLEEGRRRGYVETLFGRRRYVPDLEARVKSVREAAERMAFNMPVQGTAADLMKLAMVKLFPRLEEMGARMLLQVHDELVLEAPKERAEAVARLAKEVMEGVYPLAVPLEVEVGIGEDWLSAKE
Test protocol: AMC sensor, antibody immobilised
Measured endpoint: kon (M⁻¹ s⁻¹)
Respond with the bare value in M⁻¹ s⁻¹.

Binder	Measurement
Mutation 1-3 (antibody, V domains shown, Mutation 1 background; CDRs built) VH: QVQLQQPGAELVKPGASVRLSCQTSVETFTTYYIYWVKQRPGEGLEWIGGVNPTSGGPVFNEKFKSKATLTVDTSSSTAYMQLSSLTSVDSAVYYCTRSVLRRGYYFDYWGQGTALTVSS VL: DIQMTQTTSSLSASLGDRVTISCRASQDINNYLNWYQQKPDGTIKLLIYYTSRLHSGIPSRFSGSGSGTDYSLTIANLEQEDIATYFCQQDDTVPVTFGAGTKVELKR	42000

Consider the additional binder presented here.
Q. Consider the binder Mutation 1-8 (antibody, V domains shown, Mutation 1 background; CDRs built) VH: QVQLQQPGAELVKPGASVRLSCQTSVETFSTYYIYWVKQRPGEGLEWIGGLNPTSNPVFNEKFKSKATLTVDTSSSTAYMQLSSLTSVDSAVYYCTRSLIRRGYYFDYWGQGTALTVSS VL: DIQMTQTTSSLSASLGDRVTISCRASQDIQNYLNWYQQKPDGTIKLLIYYTSRLNSGLPSRFSGSGSGTDYSLTIANLEQEDIATYFCQQDDTLPLTFGAGTKVELKR . State its measured kon.
A. 47600
